Recorded values, source patent US20220204476A1.

Test system: SARS-CoV-2
Experiment: SARS-CoV-2 in vitro plaque reduction assay in Vero E6 cells
Format: cell-based
Conditions: Severe acute respiratory syndrome coronavirus 2, Vero C1008, MOI 0.0001 pfu/cell, plaques counted after 48 h, >5 μM = did not reduce plaque numbers by half at 10 μM, read-out: SARS-CoV-2 Antiviral EC50
A collection of molecules and their measured EC50
result.type: EC50

molecule: CC(C)C[C@H](NCC1CCCCC1)C(=O)N[C@H](C#N)C[C@@H]1CCCNC1=O [Compound 95]
value.measured: > 5 µM
//
molecule: CC(C)(C)C[C@H](NC(=O)c1nc2ccccc2[nH]1)C(=O)N[C@H](C#N)C[C@@H]1CCCNC1=O [Compound 88]
value.measured: > 5 µM
//
molecule: CC(C)C[C@H](NC(=O)OCC1c2ccccc2-c2ccccc21)C(=O)N[C@H](C#N)C[C@@H]1CCCNC1=O [Compound 67]
value.measured: 4.1 µM
//
molecule: CC(C)(C)C[C@H](NC(=O)[C@H]1Cc2ccccc2N1)C(=O)N[C@H](C#N)C[C@@H]1CCCNC1=O [Compound 102]
value.measured: > 5 µM
//
molecule: CC(C)(C)C[C@H](NC(=O)[C@H]1Cc2ccccc2N1C(=O)OCc1ccccc1)C(=O)N[C@H](C#N)C[C@@H]1CCCNC1=O [Compound 101]
value.measured: > 5 µM
//
molecule: COc1cccc2[nH]c(C(=O)N[C@@H](CC(C)C)C(=O)N[C@@H](C[C@@H]3CCCNC3=O)C(=O)COC(=O)c3ccncc3)cc12 [Compound 8]
value.measured: > 5 µM
//
molecule: CC(C)C[C@H](NC(=O)C1(O)CCCC1)C(=O)N[C@H](C#N)C[C@@H]1CCCNC1=O [Compound 76]
value.measured: > 5 µM
//
molecule: COc1cccc2[nH]c(C(=O)N[C@@H](CC(C)C)C(=O)N[C@@H](C[C@@H]3CCCNC3=O)C(=O)COC(=O)c3c(C(F)(F)F)cccc3C(F)(F)F)cc12 [Compound 6]
value.measured: 0.21 µM
//
molecule: CC(C)(C)C[C@H](NC(=O)[C@@H]1CCCN1C(=O)OCc1ccccc1)C(=O)N[C@H](C#N)C[C@@H]1CCCNC1=O [Compound 89]
value.measured: > 5 µM
//
molecule: COc1cccc2[nH]c(C(=O)N[C@@H](CC(C)C)C(=O)N[C@@H](C[C@@H]3CCCNC3=O)C(=O)COC(=O)c3c(C(F)(F)F)cc(C)nc3C)cc12 [Compound 18]
value.measured: 0.46 µM
//
molecule: N#C[C@H](C[C@@H]1CCNC1=O)NC(=O)[C@H](CC1CCCCC1)NC(=O)OCc1cccc(Cl)c1 [Compound 94]
value.measured: > 5 µM
//
molecule: COc1cccc2[nH]c(C(=O)N[C@@H](CC(C)C)C(=O)N[C@@H](C[C@@H]3CCNC3=O)C(=O)COC(=O)C(C)(C)C(F)(F)F)cc12 [Compound 27]
value.measured: > 5 µM
//
molecule: CC(C)C[C@H](NC(=O)c1cc2ccccc2o1)C(=O)N[C@H](C#N)C[C@@H]1CCCNC1=O [Compound 79]
value.measured: 4.5 µM
//
molecule: COc1cccc2oc(C(=O)N[C@@H](CC(C)(C)C)C(=O)N[C@H](C#N)C[C@@H]3CCCNC3=O)cc12 [Compound 93]
value.measured: > 5 µM
//
molecule: CC(C)C[C@H](NC(=O)c1nc(-c2ccccc2)c[nH]1)C(=O)N[C@H](C#N)C[C@@H]1CCCNC1=O [Compound 75]
value.measured: > 5 µM
//
molecule: COc1cccc2[nH]c(C(=O)N[C@@H](CC(C)C)C(=O)N[C@H](C#N)C[C@@H]3CCCNC3=O)cc12 [Compound 34]
value.measured: 2.7 µM
//
molecule: COc1cc(Cl)cc2[nH]c(C(=O)N[C@@H](CC(C)(C)C)C(=O)N[C@H](C#N)C[C@@H]3CCCNC3=O)cc12 [Compound 35]
value.measured: 1.5 µM
//
molecule: COc1cccc2[nH]c(C(=O)N[C@@H](CC(C)C)C(=O)N[C@@H](C[C@@H]3CCCNC3=O)C(=O)COC(=O)c3cccnc3C(F)(F)F)cc12 [Compound 10]
value.measured: > 5 µM
//
molecule: COc1cccc2[nH]c(C(=O)N[C@@H](CC(C)C)C(=O)N[C@@H](C[C@@H]3CCCNC3=O)C(=O)COc3ccc(S(C)(=O)=O)cc3)cc12 [Compound 30]
value.measured: > 5 µM
//
molecule: CC(C)C[C@H](NC(=O)[C@H]1CCCO1)C(=O)N[C@@H](C[C@@H]1CCNC1=O)C(=O)COC(=O)c1c(C(F)(F)F)cccc1C(F)(F)F [Compound 74]
value.measured: < 1 µM
//
molecule: COc1cccc2[nH]c(C(=O)N[C@@H](CC(C)C)C(=O)N[C@@H](C[C@@H]3CCCNC3=O)C(=O)COC(=O)C(C)(C)C(F)(F)F)cc12 [Compound 13]
value.measured: > 5 µM
//
molecule: COc1cccc2[nH]c(C(=O)N[C@@H](CC(C)C)C(=O)N[C@@H](C[C@@H]3CCCNC3=O)C(=O)COC(=O)c3ccccn3)cc12 [Compound 3]
value.measured: > 5 µM
//
molecule: COc1cc(Cl)cc2[nH]c(C(=O)N[C@@H](CC(C)C)C(=O)N[C@H](C#N)C[C@@H]3CCCNC3=O)cc12 [Compound 68]
value.measured: 2.2 µM
//
molecule: CC(C)C[C@H](NC(=O)[C@H]1CCCO1)C(=O)N[C@H](C#N)C[C@@H]1CCCNC1=O [Compound 80]
value.measured: > 5 µM
//
molecule: COc1cccc2[nH]c(C(=O)N[C@@H](CC(C)C)C(=O)N[C@@H](C[C@@H]3CCCNC3=O)C(=O)COC(=O)c3ccc(C(C)(C)C)nc3)cc12 [Compound 11]
value.measured: > 5 µM
//
molecule: COc1cccc2[nH]c(C(=O)N[C@@H](CC(C)(C)C)C(=O)N[C@H](C#N)C[C@@H]3CCCNC3=O)cc12 [Compound 70]
value.measured: > 5 µM

----------
Molecular target: UniProt P0DTD1
Test: SARS-CoV-2 3CLP inhibition, FRET-based cleavage assay
Format: biochemical
Settings: 80 nM SARS-CoV-2 3CLP, 100 μM substrate, 37° C., 10 min incubation, pH 7.8; read-out: 3CL Protease IC50
pIC50: −log10 of the molar value.
A collection of compounds and their measured pIC50

structure.smiles.string: CC(C)(C)C[C@H](NC(=O)[C@@H]1CCCN1C(=O)OCc1ccccc1)C(=O)N[C@H](C#N)C[C@@H]1CCCNC1=O
pIC50: 5.55

structure.smiles.string: CC(C)C[C@H](NCc1ccc[nH]c1=O)C(=O)N[C@H](C#N)C[C@@H]1CCCNC1=O
pIC50: 4.33

structure.smiles.string: CC(C)C[C@H](NC(=O)C1(O)CCCC1)C(=O)N[C@H](C#N)C[C@@H]1CCCNC1=O
pIC50: 6.02

structure.smiles.string: CC(C)C[C@H](NC(=O)C1CCCC1)C(=O)N[C@@H](C[C@@H]1CCCNC1=O)C(=O)COC(=O)c1cccnc1
pIC50: 5.30
